System: DeltatarO mutant
Test: S. aureus survival, RN4220 and DeltatarO strains – OD600, teichoic acid synthesis inhibitors, primary screen (AID 463173)
Conditions: S. aureus RN4220 wild type/DeltatarO growth, OD600, 18 h, active compounds read low, screened at 18.75 µg/mL (by protocol)
The whole screen tested about 52,000 compounds, of which about 4,300 (8.3%) were called active. The sample as a whole holds a higher share of actives than the screen did.
Could you please mark met for values of survival below 80% and not met for values at or above it?

Example results:
compound	cat
c1csc(-c2nc3ccccn3c2Nc2ccc3c(c2)OCCO3)c1	not met
Cc1ccccc1OCCCCn1c(C2CC(=O)N(c3ccccc3Cl)C2)nc2ccccc21 (stereo unspecified)	met
CC(=O)Nc1ccc(C(=O)NCCN2CCOCC2)cc1	not met
Cc1cccc(NC(=O)C2CCCN(S(=O)(=O)c3c(C)noc3/C=C/N(C)C)C2)c1C (stereo unspecified)	not met
Cc1cccc(C)c1OCCCCn1c(C2CC(=O)N(c3ccc(F)cc3)C2)nc2ccccc21 (stereo unspecified)	met

Take the compound Cc1nc2cc(-c3cccc(F)c3)nn2c(C)c1CCC(=O)Nc1ccccc1C(N)=O and say whether its survival is less than 80%.
met

Is survival strictly under 80% for the entry CSc1ccc(CCNc2ncnc3onc(C)c23)cc1 ?
not met

Bench note: check whether CCN(CCN(C)C)C(=O)Cn1ncc2c([nH]c3ccc(C)cc32)c1=O shows survival below 80%
not met

Could you please tell me whether survival recorded for CCCNC(=O)CSc1cn(CC(=O)N2CCCCCC2)c2ccccc12 is less than 80%?
not met

For this compound, is survival lower than 80%? CC1(C)CC(=O)c2cc(C(=O)Nc3ccc(Br)cc3)c(=O)[nH]c2C1
met

Is it true that survival reported for CCc1ccc2c(c1)NC(c1ccc(C)cc1)=NC(c1cccs1)=N2 is less than 80%?
met
